- targetEntity: T1, HPV 16 E6(29-38)-peptide-MHC tetramer complex (human papillomavirus 16 (HPV16); human)
- T1 construct: also called E6(29-38)-specific tetramer
- experimentalProtocol: flow cytometry, peptide-MHC tetramer staining of TCR-transduced primary human T cells;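 further: normal donor T cells activated with anti-CD3/anti-CD28, then lentivirally transduced with TCRs, with mock-transduced cells as control, co-stained for the transduction marker and CD8, tetramers presented by HLA-A02:01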
Record form. Attribute: % of CD8- (CD4+) cells positive for E6(29-38) tetramer staining. Fill in for each entry.
Use % as the unit, but write only the number.

Input: Query: % of CD8- (CD4+) cells positive for E6(29-38) tetramer staining; subject: TCR 61 (mouse constant regions) (TCR, V domains shown) V domain 1: QKEVEQNSGPLSVPEGAIASLNCTYSDRGSQSFFWYRQYSGKSPELIMFIYSNGDKEDGRFTAQLNKASQYVSLLIRDSQPSDSATYLCAVNIENNNARLMFGDGTQLVVKP V domain 2: EPEVTQTPSHQVTQMGQEVILRCVPISNHLYFYWYRQILGQKVEFLVSFYNNEISEKSEIFDDQFSVERPDGSNFTLKIRSTKLEDSAMYFCASTKRFSYEQYFGPGTRLTVTE
Output: 0.12

Input: Do the same for TCR 62 (mouse constant regions) (TCR, V domains shown) V domain 1: AQTVTQSQPEMSVQEAETVTLSCTYDTSENNYYLFWYKQPPSRQMILVIRQEAYKQQNATENRFSVNFQKAAKSFSLKISDSQLGDTAMYFCALYTYKYIFGTGTRLKVLA V domain 2: EAGVAQSPRYKIIEKRQSVAFWCNPISGHATLYWYQQILGQGPKLLIQFQNNGVVDDSQLPKDRFSAERLKGVDSTLKIQPAKLEDSAVYLCASSLDTRGSSYNEQFFGPGTRLTVLE please
Output: 0.04

Input: Do the same for TCR 56 (mouse constant regions) (TCR, V domains shown, Human variable regions on mouse constant regions with added cysteines (Calpha Thr48Cys, Cbeta Ser57Cys); Entries are the full chains without signal peptide) V domain 1: GQNIDQPTEMTATEGAIVQINCTYQTSGFNGLFWYQQHAGEAPTFLSYNVLDGLEEKGRFSSFLSRSKGYSYLLLKELQMKDSASYLCAVRDWGYGGATNKLIFGTGTLLAVQP V domain 2: NAGVMQNPRHLVRRRGQEARLRCSPMKGHSHVYWYRQLPEEGLKFMVYLQKENIIDESGMPKERFSAEFPKEGPSILRIQQVVRGDSAAYFCASSPDESRDSNQPQHFGDGTRLSILE please
Output: 0.12
